# MEASURED_ON: Ratio of Nucleoli Translocation and Cytoplasm, AR (gene 367)
# ASSAY_OVERVIEW: UPITT_HCI_U2OS_AR_TIF2_Nucleoli_Cytoplasm_Ratio_Agonist: University of Pittsburgh U2OS Androgen Receptor-Transcriptional Intermediary Factor 2 (AR-TIF2) Agonism High Content Imaging Assay for Ratio of Nucleoli Translocation and Cytoplasm (AID 2284000);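 note: hits raise the red nucleolar to cytoplasm ratio above vehicle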
Inconclusive results are not listed. Activity calls are given as the source filed them. Rule for the calls: active = hit-call score of the fitted dose curve at least 0.9, where 1 is the maximum; inconclusive = response in the unintended direction; inactive = score below 0.9.
# output must be one of active, inactive

Lookup: What did the test return for C[C@]12C=CC3=C4CCC(=O)C=C4CC[C@H]3[C@@H]1CC[C@@H]2O ?
Found: active

Lookup: Look up the recorded call for CC(C)N(Cc1ccccc1)C(=O)C(C)(C)C in this test.
Found: inactive

Lookup: Each compound tested received a call. Report the one for CO[C@@H]1[C@H](OC(=O)NC(=O)CCl)CC[C@]2(CO2)[C@H]1[C@@]1(C)O[C@@H]1CC=C(C)C .
Found: inactive

Lookup: For Nc1ccc(Cl)cc1N , what call appears in the results of this test?
Found: inactive

Lookup: Could you check what this test reported for CC(C)(O)c1cnn2c(-c3ccc(F)c(-c4c(F)cccc4C#N)c3)cnc2n1 ?
Found: inactive

Lookup: Field: outcome | Entry: CC(C)(OOC(C)(C)c1ccccc1)c1ccccc1
Found: inactive

----------
# ASSAY_OVERVIEW: Tanguay_ZF_120hpf_YSE_legacy: (Legacy) Oregon State University Tanguay Lab 120 Hour Post-fertilization zebrafish Assay for Yolk Sac Edema (AID 2283634)
Results filed as inconclusive are left out. Active and inactive are the calls of the source. Rule for the calls: active = hit-call score of the fitted dose curve at least 0.9, where 1 is the maximum; inconclusive = response in the unintended direction; inactive = score below 0.9.
OBSERVABLE: outcome

molecule=c1ccc(N=Nc2ccccc2)cc1 assay_value=inactive
molecule=Clc1ccccc1Cl assay_value=inactive
molecule=c1ccc(NNc2ccccc2)cc1 assay_value=inactive
molecule=Brc1ccc(Oc2ccccc2)cc1 assay_value=inactive
molecule=COP(=S)(OC)SCN1C(=O)c2ccccc2C1=O assay_value=inactive
molecule="CCCCCCCCCCCCCN1CC(C)OC(C)C1 (configuration not stated)" assay_value=inactive

Now for another entry.
outcome in this record for ClC1=C(Cl)C2(Cl)C3C(Cl)C=CC3C1(Cl)C2(Cl)Cl (configuration not stated) : inactive

----------
# MEASURED_ON: human Dopamine Receptor D2 (DRD2), DRD2 (gene 1813)
# ASSAY_OVERVIEW: NVS_GPCR_hDRD2s: NovaScreen (NVS) G Protein-Coupled Receptor Assay for human Dopamine Receptor D2 (DRD2) (AID 2283266)
Results filed as inconclusive are left out. Calls of active or inactive are those of the source. How the source made its calls: active means hit-call score of the fitted dose curve at least 0.9, where 1 is the maximum; inconclusive means response in the unintended direction; inactive means score below 0.9.
Would you mind answering with one of these outcomes? active, inactive

Lookup: Tell me the recorded outcome of this test for N#CC(Br)Br .
Found: inactive

Lookup: What did the test return for [Cl-].[Cl-].[Hg+2] ?
Found: active

Lookup: Could you kindly confirm the outcome this assay logged for [O-][Cl+]O ?
Found: inactive

Lookup: Kindly provide the recorded test outcome for the following compound: CCOC(=O)[C@]1(c2ccccc2)Oc2ccccc2[C@@H]1N
Found: active

Lookup: Identify the outcome logged in this assay for the compound shown: CCC[CH2][Sn]([Cl])([CH2]CCC)[CH2]CCC
Found: active

Lookup: Tell me the assay call for CCCCCCCCn1sccc1=O please.
Found: active

----------
# Test system: TTR (gene 7276)
# ASSAY_OVERVIEW: CCTE_GLTED_hTTR_0.125uM: CCTE's human Transthyretin (hTTR) Inhibition Assay, with 0.125uM TTR, Great Lakes Toxicology and Ecology Division (GLTED) Lab (AID 2284431);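 note: hits lower the fluorescence signal relative to DMSO baseline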
Activity calls are given as the source filed them. How the source made its calls: active means hit-call score of the fitted dose curve at least 0.9, where 1 is the maximum; inactive means score below 0.9.
OBSERVABLE: AC50

The recorded AC50 for Brc1ccc(Oc2ccccc2)cc1 is 50 µM (active)

Value of measured AC50 for the entry Nc1ccc(N=Nc2ccccc2)cc1 : 0.593 µM (active)

Record CCNS(=O)(=O)C(F)(F)C(F)(F)C(F)(F)C(F)(F)C(F)(F)C(F)(F)C(F)(F)C(F)(F)F , field AC50: 1.05 µM (active)

In plain terms, CS(=O)(=O)NC(=O)c1cc(Oc2ccc(C(F)(F)F)cc2Cl)ccc1[N+](=O)[O-] has a documented AC50 of 6.19 µM (active)

----------
# MEASURED_ON: human Adrenergic, Beta 1 Receptor (Adrb1), ADRB1 (gene 153) (UniProt P08588)
# Sequence (P08588 whole entry, looked up): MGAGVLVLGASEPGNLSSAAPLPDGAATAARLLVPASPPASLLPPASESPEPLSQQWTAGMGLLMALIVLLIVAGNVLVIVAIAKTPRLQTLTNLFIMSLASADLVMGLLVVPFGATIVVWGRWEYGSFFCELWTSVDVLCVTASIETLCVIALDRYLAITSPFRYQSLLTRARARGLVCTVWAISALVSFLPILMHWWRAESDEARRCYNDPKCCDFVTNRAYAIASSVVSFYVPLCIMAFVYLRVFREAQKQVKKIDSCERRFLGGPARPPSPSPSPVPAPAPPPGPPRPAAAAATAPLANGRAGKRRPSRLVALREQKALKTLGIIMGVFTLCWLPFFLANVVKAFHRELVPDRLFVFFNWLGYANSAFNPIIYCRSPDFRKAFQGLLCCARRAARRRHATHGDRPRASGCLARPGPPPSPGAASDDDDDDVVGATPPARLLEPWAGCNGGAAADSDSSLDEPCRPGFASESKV
# ASSAY_OVERVIEW: NVS_GPCR_hAdrb1: NovaScreen (NVS) G Protein-Coupled Receptor Assay for human Adrenergic, Beta 1 Receptor (Adrb1) (AID 2283258)
Records with an inconclusive call do not appear. Active and inactive are the calls of the source. The calls were made as follows: active = hit-call score of the fitted dose curve at least 0.9, where 1 is the maximum; inconclusive = response in the unintended direction; inactive = score below 0.9.
The reply should name one outcome from active, inactive

Lookup: Tell me the assay call for CCC[CH2][Sn]([Cl])([CH2]CCC)[CH2]CCC please.
Found: active

Lookup: Lab log entry: CCCCCCCCOC(=O)c1ccc(C(=O)OCCCCCCCC)c(C(=O)OCCCCCCCC)c1 — outcome as called in the assay?
Found: inactive

Lookup: Field: outcome | Entry: CCCCCOC(=O)c1ccccc1C(=O)OCCCCC
Found: inactive

Lookup: Identify the outcome logged in this assay for the molecule shown: O=C(N[C@H](c1ccccc1)[C@@H]1CN2CCC1CC2)c1c(Cl)ccc(C(F)(F)F)c1Cl
Found: active

Lookup: Call for entry [Cl-].[Cl-].[Hg+2] :
Found: active

Lookup: Could you check what this test reported for CCCCCCCCn1sccc1=O ?
Found: active

----------
# MEASURED_ON: Retinoic acid receptor RXR-alpha (Homo sapiens)
# ASSAY_OVERVIEW: ATG_RXRa_TRANS: Attagene TRANS-FACTORIAL HepG2 Assay for human Retinoid X Receptor alpha (RXRa) (AID 2283012)
Records with an inconclusive call do not appear. Active and inactive are the calls of the source. The calls were made as follows: active = hit-call score of the fitted dose curve at least 0.9, where 1 is the maximum; inconclusive = response in the unintended direction; inactive = score below 0.9.
In this exercise, the only acceptable responses are true = active, false = inactive

Lookup: Called result for CCCCCCCCOC(=O)c1ccc(C(=O)OCCCCCCCC)c(C(=O)OCCCCCCCC)c1
Found: false

Lookup: Please state the recorded outcome for this compound: Oc1ccc2ccc3cccc4ccc1c2c34
Found: false

Lookup: // return assay outcome for ClC1=C(Cl)[C@]2(Cl)[C@H]3[C@H]([C@@H]4C=C[C@H]3C4)[C@@]1(Cl)C2(Cl)Cl
Found: false

Lookup: Hi, sorry to bother you, what did the test record for [Cl-].[Cl-].[Hg+2] ?
Found: false

Lookup: Per the records of this test, what outcome belongs to O=C(Oc1ccc(Br)cc1)N1CCN2CCC1CC2 ?
Found: false

Lookup: Any idea what this test logged for Cc1cc(N=Nc2ccccc2C)ccc1N ?
Found: false

Lookup: What did this assay record as the result for CCN(CC)CCO ?
Found: false

Lookup: Please share the test call associated with CCC[CH2][Sn]([Cl])([CH2]CCC)[CH2]CCC .
Found: true

Lookup: Would you mind telling me which call this test gave CCCCOC(=O)c1ccccc1C(=O)OCc1ccccc1 ?
Found: false

Lookup: For CN(C)C(=O)Nc1ccc(Cl)cc1 , which call appears in the assay record?
Found: false

Lookup: Entry C=CCc1ccc2c(c1)OCO2 : call = ?
Found: false

Lookup: Test call for this compound, please: ClC1=C(Cl)C2(Cl)C3C(Cl)C=CC3C1(Cl)C2(Cl)Cl (configuration not stated)
Found: false

Lookup: Kindly provide the recorded test outcome for the following compound: Nc1ccc(N=Nc2ccccc2)cc1
Found: false

Lookup: Lab log entry: CC(C)(C)OOC(=O)c1ccccc1 — outcome as called in the assay?
Found: false

Lookup: What outcome does the record of this test show for O=[N+]([O-])C(Br)(CO)CO ?
Found: false

Lookup: Give the logged outcome of this assay for the following compound: CO[C@@H]1[C@H](OC(=O)NC(=O)CCl)CC[C@]2(CO2)[C@H]1[C@@]1(C)O[C@@H]1CC=C(C)C
Found: false

Lookup: I'd appreciate the recorded outcome for Oc1ccccc1Cl from this test.
Found: false

Lookup: Test call for this compound, please: OCCOCCO
Found: false

Lookup: Test call, this compound: C1=Cc2cccc3cccc1c23
Found: false

Lookup: Dear colleague, could you share the recorded outcome for c1ccc2c(c1)-c1cccc3cccc-2c13 when you have a moment?
Found: false

Lookup: For C[C@]12C=CC3=C4CCC(=O)C=C4CC[C@H]3[C@@H]1CC[C@@H]2O , which call appears in the assay record?
Found: false

Lookup: Test call, this compound: CCNS(=O)(=O)C(F)(F)C(F)(F)C(F)(F)C(F)(F)C(F)(F)C(F)(F)C(F)(F)C(F)(F)F
Found: false

Lookup: Recorded test outcome, item CC(C)(C)OOC(C)(C)CCC(C)(C)OOC(C)(C)C
Found: false

Lookup: Can you look up the reported call for Cc1ccc([N+](=O)[O-])cc1 for me?
Found: false

Lookup: // param item: Cc1ccc(N)c(N)c1 ; yields the recorded call
Found: false

Lookup: Given Nc1ccc(Oc2ccc(N)cc2)cc1 , state the outcome it received in this test.
Found: false

Lookup: Hi, do you know how CCCCCCCCCCCCCN1CC(C)OC(C)C1 (configuration not stated) came out in this test?
Found: true
